# STUDY_TARGET: T1, BMP-12 (UniProt Q7Z4P5 322-450, limits assumed)
# T1 construct: also called BMP12/GDF7
# T1 sequence (looked up): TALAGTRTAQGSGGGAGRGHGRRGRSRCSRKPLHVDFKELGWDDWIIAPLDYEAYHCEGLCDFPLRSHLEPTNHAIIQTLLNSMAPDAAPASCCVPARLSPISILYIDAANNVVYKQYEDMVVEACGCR
# PROCEDURE_SUMMARY: peptide resin, filter plate; load 4: 25 mM MES pH 6.0
No end group written: not given here.
VALUE_KIND: Flow-through K

- BINDER: "Ac-LYVSDVGWNDWIVK (not fully specified (residue 3); printed as Ac-LYV**SDVGWNDWIVK; also: ** after V3 not explained) [BMP2 C-trunc_2 peptide 746]"
  Flow-through K: 47

1 = Ac-RDLGWQDWIIAPEGYAAFYSDGEK [BMP5 peptide 748]
2 = Ac-SDVGWNDWIVAPPGYHAFYCHGEK [BMP2 N-trun peptide 750]
// query Select the item whose Flow-through K value is smaller, choosing between 1 and 2 . Pick one and reply with its label.
// result 2
(2: 36, 1: 62)

Measured values drawn from patent US7754689B2 for this set.
